# System: spring wheat, TRZAS Triso
# protocol: Seed treatment with safener; post-emergence herbicide, crop damage
# Type: in vivo
# condition set: 21 DAT, HER dose 2 g a.i./ha, mefenpyr-diethyl 0.5 g a.i./kg seed
measured quantity: Reduction [Difference]
Please respond with just the number, no unit label.

molecule | quantitative readout
C=CC1(C(=O)NC2C=CC(C(=O)OC)C2)CC(c2cc(F)cc(F)c2)=NO1 (stereo not shown) | 60
COC(=O)C1COCC1NC(=O)C1(C)CC(c2cc(F)cc(F)c2)=NO1 (mixture of isomers) | 85
CC(C)OC(=O)C1CC(NC(=O)C2(C(C)(F)F)CC(c3cc(F)cc(F)c3)=NO2)CO1 (mixture of isomers) | 60

Quick one: Reduction [Difference] of C=CC1(C(=O)NC2C=CC(C(=O)O)C2)CC(c2cc(F)cc(F)c2)=NO1 (stereo not shown) ? 85

----------
# System: spring wheat, TRZAS Triso
# protocol: Tank-mix; post-emergence: crop damage by herbicide with/without safener mefenpyr-diethyl
# Type: in vivo
# condition set: HER 8 g a.i./ha + mefenpyr-diethyl 50 g a.i./ha, 10 DAT
measured quantity: Reduction [%] (%)
Reply numerically in %, unit not repeated.

Take a look at these entries with their results.
molecule | Reduction [%] [%]
COC(=O)C1C=CC(NC(=O)C2(C)CC(c3cccc(F)c3)=NO2)C1 (centres unmarked) [Example 1.20] | 100
C=CC1(C(=O)NC2COC(C(=O)OCCOC)C2)CC(c2cc(C)cc(F)c2)=NO1 (mixture of isomers) [Example 1.65] | 100
COCCOC(=O)C1C=CC(NC(=O)C2(C(F)(F)F)CC(c3cc(F)cc(C#N)c3)=NO2)C1 (centres unmarked) [Example 1.2] | 44

May I ask what Reduction [%] has been recorded for C=CC1(C(=O)NC2COC(C(=O)OC)C2)CC(c2cc(C)cc(F)c2)=NO1 (mixture of isomers) [Example 1.71] ? 100

Lookup CSCCOC(=O)C1C=CC(NC(=O)C2(C(F)(F)F)CC(c3cc(F)cc(F)c3)=NO2)C1 (centres unmarked) [Example 1.7] 25

----------
// values below are reported Reduction [Difference]
# Test system: spring barley, HORVS Montoya
# protocol: Seed treatment with safener; post-emergence herbicide, crop damage
# Type: in vivo
# condition set: HER 32 g a.i./ha post-emergence, mefenpyr-diethyl 0.5 g a.i./kg seed, 10 DAT
Keep the answer to the number alone.

Reported Reduction [Difference], compound COC(=O)C1CC(NC(=O)C2(OC)CC(c3cc(F)cc(F)c3)=NO2)CO1 (mixture of isomers) : ____ 50

Same read-out for COC(=O)C1C=CC(NC(=O)C2(C(F)(F)F)CC(c3cccc(F)c3)=NO2)C1 (stereo not shown) ? 60

Try this compound next: COC(=O)C1(C)CC(NC(=O)C2(C(C)(F)F)CC(c3cc(F)cc(F)c3)=NO2)CO1 (mixture of isomers) 60

Also check COC(=O)C1COCC1NC(=O)C1(C)CC(c2cc(F)cc(F)c2)=NO1 (mixture of isomers) 20

Similarly, CC1(C(=O)NC2CC=C(C(=O)NS(C)(=O)=O)C2)CC(c2cc(F)cc(F)c2)=NO1 (mixture of isomers) ? 40

Now consider C=CCOC(=O)C1CC(NC(=O)C2(C=C)CC(c3cc(C)cc(F)c3)=NO2)CO1 (mixture of isomers) and answer again. 50

Next record, please: C=CC1(C(=O)NC2COC(C(=O)OCCOC)C2)CC(c2cc(C)cc(F)c2)=NO1 (mixture of isomers) 30

----------
# HER effect + SAF listing for each entry below
# Test system: spring wheat, TRZAS Triso
# protocol: Tank-mix; post-emergence: crop damage by herbicide with/without safener mefenpyr-diethyl
# Format: in vivo
# condition set: HER 2 g a.i./ha + mefenpyr-diethyl 50 g a.i./ha, 21 DAT
Value expressed in %; do not type the unit.

Consider the worked cases shown below.
compound | HER effect + SAF (%)
COC(=O)C1COCC1NC(=O)C1(C)CC(c2cc(F)cc(F)c2)=NO1 (mixture of isomers) | 10
C=CC1(C(=O)NC2C=CC(C(=O)O)C2)CC(c2cc(F)cc(F)c2)=NO1 (stereo not shown) | 10
CC(C)OC(=O)C1CC(NC(=O)C2(C(C)(F)F)CC(c3cc(F)cc(F)c3)=NO2)CO1 (mixture of isomers) | 30

Proceed to the following item.
Which HER effect + SAF is reported for this compound? C=CC1(C(=O)NC2C=CC(C(=O)OC)C2)CC(c2cc(F)cc(F)c2)=NO1 (stereo not shown) 50

----------
# Tested on: spring barley, HORVS Montoya
# protocol: Tank-mix; post-emergence: crop damage by herbicide with/without safener mefenpyr-diethyl
# Format: in vivo
# condition set: herbicide alone 32 g a.i./ha, 10 DAT
Parameter: HER effect. Scope: all listed entries.
Response body: numeric value in %, unit text excluded.

Example compounds with recorded HER effect:
compound | measured quantity | quantitative readout
COC(=O)C1C=CC(NC(=O)C2(C(F)(F)F)CC(c3cccc(F)c3)=NO2)C1 (centres unmarked) | HER effect | 80
C=CCOC(=O)C1CC(NC(=O)C2(C=C)CC(c3cc(C)cc(F)c3)=NO2)CO1 (mixture of isomers) | HER effect | 80
COC(=O)C1CC(NC(=O)C2(OC)CC(c3cc(F)cc(F)c3)=NO2)CO1 (mixture of isomers) | HER effect | 50
COC(=O)C1(C)CC(NC(=O)C2(C(C)(F)F)CC(c3cc(F)cc(F)c3)=NO2)CO1 (mixture of isomers) | HER effect | 90

For the compound shown here, COC(=O)C1COCC1NC(=O)C1(C)CC(c2cc(F)cc(F)c2)=NO1 (mixture of isomers) , give the reported HER effect. 90

----------
# System: spring barley, HORVS Montoya
# protocol: Tank-mix; post-emergence: crop damage by herbicide with/without safener mefenpyr-diethyl
# Assay type: in vivo
# condition set: HER 32 g a.i./ha + mefenpyr-diethyl 100 g a.i./ha, 10 DAT
Entries and their HER effect + SAF
Numbers only; they are read as %.

A selection of reference data follows.
molecule | HER effect + SAF, %
COC(=O)C1(C)CC(NC(=O)C2(C(C)(F)F)CC(c3cc(F)cc(F)c3)=NO2)CO1 (mixture of isomers) | 70
C=CCOC(=O)C1CC(NC(=O)C2(C=C)CC(c3cc(C)cc(F)c3)=NO2)CO1 (mixture of isomers) | 20
COC(=O)C1C=CC(NC(=O)C2(C(F)(F)F)CC(c3cccc(F)c3)=NO2)C1 (centres unmarked) | 10
COC(=O)C1COCC1NC(=O)C1(C)CC(c2cc(F)cc(F)c2)=NO1 (mixture of isomers) | 30

We next turn to a different molecule, shown below.
Item under review: COC(=O)C1CC(NC(=O)C2(OC)CC(c3cc(F)cc(F)c3)=NO2)CO1 (mixture of isomers) . Reported HER effect + SAF? 10

----------
# Tested on: spring wheat, TRZAS Triso
# protocol: Seed treatment with safener; post-emergence herbicide, crop damage
# Type: in vivo
# condition set: 10 DAT, HER dose 8 g a.i./ha, mefenpyr-diethyl 0.5 g a.i./kg seed
measured quantity: Reduction [%] (%)
Write the answer as a number in %, unit excluded.

compound | target of assay | Reduction [%] (%)
C=CC1(C(=O)NC2COC(C(=O)OCCOC)C2)CC(c2cc(C)cc(F)c2)=NO1 (mixture of isomers) | spring wheat, TRZAS Triso | 100
C=CC1(C(=O)NC2COC(C(=O)OC)C2)CC(c2cc(C)cc(F)c2)=NO1 (mixture of isomers) | spring wheat, TRZAS Triso | 100
CC1(C(=O)NC2CC=C(C(=O)NS(C)(=O)=O)C2)CC(c2cc(F)cc(F)c2)=NO1 (mixture of isomers) | spring wheat, TRZAS Triso | 80
CSCCOC(=O)C1C=CC(NC(=O)C2(C(F)(F)F)CC(c3cc(F)cc(F)c3)=NO2)C1 (stereo not drawn) | spring wheat, TRZAS Triso | 57
COC(=O)C1C=CC(NC(=O)C2(C)CC(c3cccc(F)c3)=NO2)C1 (stereo not drawn) | spring wheat, TRZAS Triso | 100

Please state recorded Reduction [%] (tested on spring wheat, TRZAS Triso) of COCCOC(=O)C1C=CC(NC(=O)C2(C(F)(F)F)CC(c3cc(F)cc(C#N)c3)=NO2)C1 (stereo not drawn) 89

----------
# System: spring wheat, TRZAS Triso
# protocol: Tank-mix; post-emergence: crop damage by herbicide with/without safener mefenpyr-diethyl
# Type: in vivo
# condition set: HER 8 g a.i./ha + mefenpyr-diethyl 50 g a.i./ha, 10 DAT
measured quantity: HER effect + SAF
# do not omit the unit; it follows the number

molecule | measured quantity | result
C=CC1(C(=O)NC2COC(C(=O)OC)C2)CC(c2cc(C)cc(F)c2)=NO1 (mixture of isomers) [Example 1.71] | HER effect + SAF | 0%
CSCCOC(=O)C1C=CC(NC(=O)C2(C(F)(F)F)CC(c3cc(F)cc(F)c3)=NO2)C1 (centres unmarked) [Example 1.7] | HER effect + SAF | 70%
COCCOC(=O)C1C=CC(NC(=O)C2(C(F)(F)F)CC(c3cc(F)cc(C#N)c3)=NO2)C1 (centres unmarked) [Example 1.2] | HER effect + SAF | 50%

Recorded HER effect + SAF of COC(=O)C1C=CC(NC(=O)C2(C)CC(c3cccc(F)c3)=NO2)C1 (centres unmarked) [Example 1.20] , please. 0%

Next entry: C=CC1(C(=O)NC2COC(C(=O)OCCOC)C2)CC(c2cc(C)cc(F)c2)=NO1 (mixture of isomers) [Example 1.65] 0%
